Reference source: patent US11352363B1

biological target: SARS-CoV-2 3CL-protease (Severe acute respiratory syndrome coronavirus 2 (2019-nCoV) (SARS-CoV-2), UniProt P0DTD1); assay: SARS-CoV-2 3C-like (3CL) protease fluorescence assay (FRET); assay type: biochemical
Assign IC50 to each entry below.

Item under review: `CC(C)C[C@@H](C(=O)N1C[C@]2(C[C@H]1C#N)C(=O)Nc1ccccc12)N(C)C(=O)c1cc2cc(F)cc(F)c2[nH]1` . Reported IC50? < 100 nM

And the next one, CC(OC(C)(C)C)[C@H](NC(=O)OCc1ccccc1)C(=O)N1C[C@]2(C[C@H]1C#N)C(=O)Nc1ccccc12 (stereo partly drawn) ? > 1000 nM

Now try COc1cccc2[nH]c(C(=O)N[C@H](C(=O)N3C[C@]4(C[C@H]3C#N)C(=O)Nc3ccccc34)C(C)OC(C)(C)C)cc12 (stereo partly drawn) . 100 to 1000 nM
